From: patent US11352354B2

# Tested on: MDA-MB-231 cells
# protocol: Vacuolation of MDA-MB-231 cells caused by inhibition of compounds on PIKfyve (microscopy); note: key: '+' represents the degree of vacuolation; ++: more '+' indicates more obvious vacuolation; +++: more '+' indicates more obvious vacuolation; ++++: more '+' indicates more obvious vacuolation; '−' represents no vacuolation
# Format: cell-based
# condition.summary: MDA-MB-231 cells, 10 μM, 24 h
parameter.measured: degree of vacuolation, 10 μM, 24 h

[[record]]
mol_smiles = "Cc1ccc(C(=O)Nc2cccc(OC(F)(F)F)c2)cc1Nc1cc(-c2cccnc2)nc2[nH]ccc12"
tested_target = "MDA-MB-231 cells"
measured_result = "+"

[[record]]
mol_smiles = "Cc1ccc(NC(=O)c2cccc(C(F)(F)F)c2)cc1Nc1cc(-c2cccnc2)c2cc[nH]c2n1"
tested_target = "MDA-MB-231 cells"
measured_result = "+++"

[[record]]
mol_smiles = "Cc1ccc(C(=O)Nc2cccc(C(F)(F)F)c2)cc1Nc1nc(-c2cccc(Cl)c2)nc2c1cnn2C"
tested_target = "MDA-MB-231 cells"
measured_result = "−"

[[record]]
mol_smiles = "Cc1ccc(C(=O)Nc2ccc(CN3CCN(C)CC3)c(C(F)(F)F)c2)cc1Nc1cc(-c2cccnc2)nc2[nH]ccc12"
tested_target = "MDA-MB-231 cells"
measured_result = "−"


----------
# System: JeKo-1 cells
# protocol: Tumor cell growth inhibition by MTS method, JeKo-1
# Format: cell-based
# condition.summary: Homo sapiens, JeKo-1, 120 h, 5 days of culture
# Method: III. Determination of IC50 Value of Compound for Inhibiting Tumor Cell Growth by MTS Method 1. Cell plating: cells in logarithmic growth phase were counted and inoculated in a 96-well plate (20000 cells per well). 2. […] 3. […] The OD value at 490 nm was measured with microplate reader OD490. […] The semi-inhibitory concentration IC50 of the compound acting on cell growth was calculated using GradPad Prism 5 software according to the measured cell growth inhibition rate. […]
Examples of compounds with documented IC50 follow.
parameter.measured: IC50 (µM)

[[record]]
mol_smiles = "Cc1ccc(NC(=O)c2ccc(CN3CCN(C)CC3)c(C(F)(F)F)c2)cc1Nc1nc(-c2cccnc2)c2[nH]ccc2n1"
tested_target = "JeKo-1 cells"
unit_abbreviation = "µM"
measured_result = 1.54

[[record]]
mol_smiles = "Cc1ccc(Nc2nc(-c3cccc(NC(=O)c4ccc(N)nc4)c3)nc3ccsc23)cn1"
tested_target = "JeKo-1 cells"
unit_abbreviation = "µM"
measured_result = 0.824

[[record]]
mol_smiles = "Cc1ccc(NC(=O)c2cccc(C(F)(F)F)c2)cc1Nc1nc(-c2cccnc2)c2[nH]ccc2n1"
tested_target = "JeKo-1 cells"
unit_abbreviation = "µM"
measured_result = 2.09

[[record]]
mol_smiles = "Cc1ccnc(Nc2nc(-c3cccc(NC(=O)c4ccc(N)nc4)c3)nc3ccsc23)c1"
tested_target = "JeKo-1 cells"
unit_abbreviation = "µM"
measured_result = 1.52

[[record]]
mol_smiles = "O=C(Nc1cccc(Nc2nc(-c3cccnc3)c3[nH]ccc3n2)c1)c1cccc(C(F)(F)F)c1"
tested_target = "JeKo-1 cells"
unit_abbreviation = "µM"
measured_result = 0.862

[[record]]
mol_smiles = "Cc1ccc(NC(=O)c2cccc(C(F)(F)F)c2)cc1Nc1nc(-c2cccnc2)cn2ccnc12"
tested_target = "JeKo-1 cells"
unit_abbreviation = "µM"
measured_result = 7.49

[[record]]
mol_smiles = "O=C(Nc1cccc(C(F)(F)F)c1)c1cccc(Nc2cc(-c3cccnc3)nc3sccc23)c1"
tested_target = "JeKo-1 cells"
unit_abbreviation = "µM"
measured_result = 5.14

[[record]]
mol_smiles = "Cc1ccc(C(=O)Nc2cccc(C(F)(F)F)c2)cc1Nc1nc(-c2ccncc2)nc2cc[nH]c12"
tested_target = "JeKo-1 cells"
unit_abbreviation = "µM"
measured_result = 0.987

